For each entry below, report its IC50 value.
# target: HLA-DRB1*04:01 (Homo sapiens, UniProt P01903+P01911, A100K/A169T/F76Y/I96L/K127E/L162R/M171V/N62H/P40V/Q125Y/R42H/S133A/S149N/S66Y/V115G/V209L/W38E)
# Construct: EBV transformed homozygous cell lines were used as sources of MHC molecules; endogenous in cells; host or cells: EBV transformed homozygous cell lines
# test_protocol: HLA class II peptide binding, inhibition of radiolabeled peptide binding to purified MHC
# test_settings: wild-type (unmodified Arg) 15-mer peptide; purified HLA-DRB1*04:01; read-out: DRB1*04:01 binding capacity, WT peptide (IC50 nM)
Supply the numeric figure in nM, leaving out any unit text.

IC50 reported for this compound `CC[C@H](C)[C@H](NC(=O)[C@H](CCCNC(=N)N)NC(=O)[C@H](CO)NC(=O)[C@H](CCC(=O)O)NC(=O)[C@H](CCC(=O)O)NC(=O)CNC(=O)[C@H](CCC(=O)O)NC(=O)[C@H](CC(C)C)NC(=O)[C@H](CC(C)C)NC(=O)[C@H](CCCCN)NC(=O)[C@@H](N)CCCNC(=N)N)C(=O)N[C@@H](CO)C(=O)N[C@@H](CC(C)C)C(=O)N1CCC[C@H]1C(=O)N[C@@H](CC(C)C)C(=O)O` : 2710

The measured IC50 associated with `CC[C@H](C)[C@H](NC(=O)CNC(=O)[C@H](CCCNC(=N)N)NC(=O)[C@H](CCC(N)=O)NC(=O)CNC(=O)[C@H](C)NC(=O)[C@H](CC(C)C)NC(=O)CNC(=O)[C@H](CCC(N)=O)NC(=O)[C@@H]1CCCN1C(=O)CNC(=O)[C@@H]1CCCN1)C(=O)N[C@H](C(=O)NCC(=O)N[C@@H](CC(C)C)C(=O)O)C(C)C` reads 7160

Record `CC(C)C[C@H](NC(=O)[C@H](CC(N)=O)NC(=O)[C@@H](NC(=O)[C@H](CCC(=O)O)NC(=O)[C@H](CCCNC(=N)N)NC(=O)[C@H](CC(C)C)NC(=O)[C@H](CC(N)=O)NC(=O)[C@@H](N)CC(C)C)[C@@H](C)O)C(=O)N[C@@H](CC(=O)O)C(=O)N[C@@H](CO)C(=O)N[C@@H](CC(C)C)C(=O)N1CCC[C@H]1C(=O)N[C@@H](CC(C)C)C(=O)N[C@H](C(=O)N[C@@H](CC(=O)O)C(=O)O)C(C)C` , field IC50: 3740

Quick note, IC50 for `CC[C@H](C)[C@H](NC(=O)[C@H](CCC(=O)O)NC(=O)[C@H](CC(=O)O)NC(=O)[C@@H](N)CCC(N)=O)C(=O)N[C@@H](CCC(N)=O)C(=O)N[C@@H](CC(N)=O)C(=O)N[C@@H](CCSC)C(=O)N[C@@H](CCCCN)C(=O)N[C@@H](CCC(=O)O)C(=O)N[C@@H](CCC(=O)O)C(=O)N[C@@H](CCSC)C(=O)N[C@@H](C)C(=O)N[C@@H](CCCNC(=N)N)C(=O)N[C@@H](Cc1c[nH]cn1)C(=O)N[C@@H](CC(C)C)C(=O)O` landed at 4550

For record `CC[C@H](C)[C@H](N)C(=O)N[C@@H](CO)C(=O)N[C@@H](CC(C)C)C(=O)N1CCC[C@H]1C(=O)N[C@@H](CC(C)C)C(=O)N1CCC[C@H]1C(=O)N[C@@H](CC(N)=O)C(=O)N[C@@H](Cc1ccccc1)C(=O)N[C@@H](CO)C(=O)N[C@@H](CO)C(=O)N[C@@H](CC(C)C)C(=O)N[C@@H](CC(N)=O)C(=O)N[C@@H](CC(C)C)C(=O)N[C@@H](CCCNC(=N)N)C(=O)N[C@@H](CCC(=O)O)C(=O)O` the listed IC50 is 7000
